Measured values drawn from patent US9113629B2 for this set.

parameter_measured: melting point

Field: example entries. Status: answers known.
COC(=O)c1nc(-c2ccc(C(F)(F)F)c(F)c2)c(F)c(N)c1Cl
133 to 135 °C
COC(=O)c1nc(-c2cc(F)c(Br)cc2F)nc(N)c1OC
186 to 187 °C
Cc1cc(F)c(-c2nc(C(=O)O)c(Cl)c(N)c2F)cc1F
167.4 to 170.2 °C
Nc1c(F)c(-c2cc(F)c(C(F)F)cc2F)nc(C(=O)O)c1Cl
86.1 to 88.4 °C
C#Cc1ccc(-c2nc(C(=O)OC)c(Cl)c(N)c2F)cc1
127 to 130 °C

Q: Data request, read-out melting point, for C=Cc1c(N)nc(-c2ccc(C(F)(F)F)c(F)c2)nc1C(=O)O
Result: 168 to 171 °C

Q: Name the reported melting point value associated with the compound Nc1c(F)c(-c2ccc(Br)c(F)c2)nc(C(=O)O)c1Cl
Result: 117 to 120 °C

Q: Would you mind telling me what melting point value was observed for COC(=O)c1nc(-c2ccc(OC(F)F)cc2)nc(N)c1OC ?
Result: 183 to 184 °C

---

tested on: Key Broadleaf Weed and Crop Species; assay: Post-emergent Test II herbicidal activity (Table 5); type: in vivo; conditions: post-emergence, 336 h; BRSNN: oilseed-rape, canola (Brassica napus); 140 g ai/ha; post-emergent; 14 days after application; read-out: Visual Growth Reduction (%) 14 Days After Application BRSNN
parameter_measured: pest or weed control at 140 g/ha

Nc1cc(-c2cc(F)c(I)cc2F)nc(C(=O)O)c1Cl
95 to 100%
C#Cc1ccc(-c2nc(N)c(OC)c(C(=O)O)n2)cc1
0 to 29%
COC(=O)c1nc(-c2ccc(I)c(F)c2)nc(N)c1OC
60 to 74%

Q: What value of pest or weed control at 140 g/ha on Key Broadleaf Weed and Crop Species does Nc1cc(-c2ccc(OC(F)F)cc2)nc(C(=O)O)c1Cl have?
Result: 60 to 74%

Q: API: value(readout=pest or weed control at 140 g/ha, system=Key Broadleaf Weed and Crop Species) for record COC(=O)c1nc(-c2ccc(I)cc2)c(Cl)c(N)c1Cl
Result: 85 to 94%

Q: I'm curious: which pest or weed control at 140 g/ha was measured for N#Cc1ccc(-c2nc(C(=O)O)c(Cl)c(N)c2Cl)cc1 tested on Key Broadleaf Weed and Crop Species?
Result: 0 to 29%

Q: Request: pest or weed control at 140 g/ha, test system Key Broadleaf Weed and Crop Species, entry Nc1cc(-c2c(F)cc(Br)c(F)c2F)nc(C(=O)O)c1Cl
Result: 95 to 100%

Q: # query: pest or weed control at 140 g/ha | item COC(=O)c1nc(-c2ccc(Br)c(F)c2)c(Cl)c(N)c1Cl | system: Key Broadleaf Weed and Crop Species
Result: 95 to 100%

Q: Give pest or weed control at 140 g/ha (Key Broadleaf Weed and Crop Species) of the following molecule: C=Cc1c(C(=O)O)nc(-c2ccc(Br)cc2)c(F)c1N
Result: 75 to 84%

---

test system: Key Grass and Sedge Weeds as well as Grass Crops; experiment: Post-emergent Test II herbicidal activity (Table 6); type: in vivo; conditions: post-emergence, 336 h, SETFA: giant foxtail (Setaria faberi), application rate 140 g ai/ha, read-out: Visual Growth Reduction (%) 14 Days After Application, SETFA
parameter_measured: pest or weed control at 140 g/ha

Nc1cc(-c2ccc(Br)c(F)c2)nc(C(=O)O)c1Cl [Compound 110]
60 to 74%
COC(=O)c1nc(-c2cc(F)c(C)cc2F)nc(N)c1OC [Compound 185]
0 to 29%
Nc1c(F)c(-c2ccc(OC(F)F)c(F)c2F)nc(C(=O)O)c1Cl [Compound 19]
0 to 29%
Cc1cc(F)c(-c2nc(C(=O)O)c(Cl)c(N)c2F)cc1F [Compound 194]
60 to 74%
COC(=O)c1nc(-c2cc(F)c(C#N)cc2F)cc(N)c1Cl [Compound 202]
60 to 74%

Q: # input compound: COC(=O)c1nc(-c2cc(F)c(C(F)(F)F)cc2F)c(F)c(N)c1Cl [Compound 144] ; wanted: its pest or weed control at 140 g/ha
Result: 75 to 84%

---

tested on: MATSS: scented mayweed (Matricaria chamomilla), pineappleweed (Matricaria matricarioides); experiment: Post-emergent Test III, herbicidal activity in wheat and barley; assay type: in vivo; details: probit analysis; dose for 50 percent growth reduction; 21 days after application
parameter_measured: GR50 MATSS (g ai/ha)
# number only, unit g ai/ha dropped from output

Past entries and their recorded results:
COC(=O)c1nc(-c2ccc(I)c(F)c2F)cc(N)c1Cl
89
Nc1c(F)c(-c2ccc(I)c(F)c2F)nc(C(=O)O)c1Cl
15
COc1c(N)nc(-c2ccc(I)cc2F)nc1C(=O)O
126
COc1c(N)nc(-c2ccc(Br)c(F)c2F)nc1C(=O)O
26
Nc1c(F)c(-c2cc(F)c(I)cc2F)nc(C(=O)O)c1Cl
5

Q: What value of GR50 MATSS has been reported for the following molecule? Nc1c(F)c(-c2ccc(I)cc2F)nc(C(=O)O)c1Cl
Result: 15

Q: Requested read-out: GR50 MATSS. Entry: Nc1c(F)c(-c2ccc(Br)cc2F)nc(C(=O)O)c1Cl
Result: 5

---

// reported pest or weed control at 35 g/ha for each item listed
test system: LAMSS; assay: Post-emergent Test III, herbicidal activity in wheat and barley; format: in vivo; conditions: post-emergence, 504 h; 35 g ai/ha; read-out: Visual Growth Reduction (%) 21 Days After Application LAMSS

Worked cases, answers included:
Nc1cc(-c2ccc(Br)c(F)c2F)nc(C(=O)O)c1Cl
95 to 100%
COC(=O)c1nc(-c2ccc(C#N)cc2)c(F)c(N)c1Cl
85 to 94%
COC(=O)c1nc(-c2ccc(Cl)c(F)c2)c(F)c(N)c1Cl
95 to 100%

Kindly review the next compound as well.
Q: Report pest or weed control at 35 g/ha for COC(=O)c1nc(-c2ccc(F)c(F)c2F)c(F)c(N)c1Cl please.
Result: 75 to 84%

---

List of melting point values.

N#Cc1ccc(-c2nc(C(=O)O)c(Cl)c(N)c2Cl)cc1 [Compound 14]
178 to 179.7 °C

Q: Could you share which melting point value was measured for Nc1cc(-c2ccc(Br)c(F)c2F)nc(C(=O)O)c1Cl [Compound 91] ?
Result: 173 to 175 °C

Q: State the recorded melting point for this entry: COC(=O)c1nc(-c2ccc(I)cc2)c(C)c(N)c1Cl [Compound 136]
Result: 115 to 118 °C

Q: What value of melting point has been reported for the following compound? Nc1c(F)c(-c2ccc(I)cc2F)nc(C(=O)O)c1Cl [Compound 169]
Result: 152 to 155 °C

Q: I am curious: what melting point value has been reported for Cc1c(-c2ccc(C(F)(F)F)c(F)c2)nc(C(=O)O)c(Cl)c1N [Compound 161] ?
Result: 170 to 171.5 °C

---

system: Key Broadleaf Weed and Crop Species; assay: Post-emergent Test II herbicidal activity (Table 5); type: in vivo; details: post-emergence, 336 h; CHEAL: lambsquarters (Chenopodium album); application rate 140 g ai/ha; 14 days after application; read-out: Visual Growth Reduction (%) 14 Days After Application, CHEAL
parameter_measured: pest or weed control at 140 g/ha

# count of solved cases: 2
Nc1cc(-c2ccc(I)cc2)nc(C(=O)O)c1Cl
95 to 100%
COC(=O)c1nc(-c2ccc(I)c(F)c2F)cc(N)c1Cl
95 to 100%

Now look at this entry.
Q: Look up pest or weed control at 140 g/ha for this compound: COC(=O)c1nc(-c2ccc(I)c(F)c2)c(F)c(N)c1Cl
Result: 95 to 100%

---

test system: MATSS: scented mayweed (Matricaria chamomilla), pineappleweed (Matricaria matricarioides); experiment: Post-emergent Test III, herbicidal activity in wheat and barley; format: in vivo; settings: Matricaria chamomilla, post-emergence, 504 h; Table 8; 70 g ai/ha; post-emergent; 21 d; read-out: Visual Growth Reduction (%) 21 Days After Application MATSS
Below, each entry is listed with its recorded pest or weed control at 70 g/ha.

Sample answers from the record:
COc1c(N)nc(-c2ccc(Br)c(F)c2)nc1C(=O)O
95 to 100%
Nc1cc(-c2ccc(Br)c(F)c2)nc(C(=O)O)c1Cl
85 to 94%
COc1c(N)nc(-c2ccc(I)c(F)c2)nc1C(=O)O
60 to 74%

Now turn to the next compound.
Q: Which pest or weed control at 70 g/ha is listed for Nc1c(Cl)c(C(=O)O)nc(-c2ccc(I)c(F)c2)c1Cl ?
Result: 95 to 100%

---

test system: Key Broadleaf Weed and Crop Species; experiment: Post-emergent Test II herbicidal activity (Table 5); assay type: in vivo; settings: post-emergence, 336 h; HELAN: sunflower (Helianthus annuus); 140 g ai/ha; post-emergent; 14 days after application; read-out: Visual Growth Reduction (%) 14 Days After Application HELAN
parameter_measured: pest or weed control at 140 g/ha

A selection of reference data follows.
COC(=O)c1nc(-c2cc(F)c(C#N)cc2F)c(F)c(N)c1Cl [Compound 198]
95 to 100%
C#Cc1ccc(-c2nc(C(=O)O)c(Cl)c(N)c2Cl)cc1 [Compound 153]
95 to 100%
COC(=O)c1nc(-c2cc(F)c(C(F)F)cc2F)c(F)c(N)c1Cl [Compound 176]
95 to 100%

With those in mind, consider the next molecule.
Q: Item under review: COC(=O)c1nc(-c2ccc(OC(F)(F)F)cc2)c(Cl)c(N)c1Cl [Compound 170] . Reported pest or weed control at 140 g/ha?
Result: 85 to 94%
